- Tested on: E13 (patient-derived glioblastoma stem cells of classical subtype);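 also: cell Painting imaging in 384-well plates, CellProfiler features reduced to at least 20 principal components, Euclidean distance versus same-plate DMSO vehicle wells (0.1% v/v), median over six images per well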
- EXPERIMENT SUMMARY: phenotypic distance (Euclidean, principal components) from DMSO controls (arbitrary units); higher = stronger morphological change
- CONDITION LABEL: 4.11523 nM; exposure time: 72 h
Where a name gives a salt, the structure may show the parent alone.
Listing of recorded phenotypic distance by entry.
Kindly provide the number alone.

Below, each entry is followed by its recorded phenotypic distance result.
COMPOUND	READOUT KIND	QUANTITATIVE RESULT
Cc1ccc(NC(=O)c2ccc3c(c2)OCCO3)cc1NC(=O)c1ccc2nc(OCCN3CCCC3)ccc2c1	phenotypic distance	2.3
CCN(CC)CCCC(C)Nc1c2ccc(Cl)cc2nc2ccc(OC)cc12 (stereo not drawn) [Quinacrine dihydrochloride hydrate]	phenotypic distance	0.636
O=C(O)c1ccc(-c2c[nH]c3ncc(-c4ccccc4)cc23)cc1C1CCCC1	phenotypic distance	3.86
Cc1[nH]nc(C(F)(F)F)c1Cc1sc2c(c1C(=O)N1C[C@](C)(O)CO1)c(=O)n(C)c(=O)n2C(C)C	phenotypic distance	3.36
CC(C)C[C@H](NC(=O)[C@H](Cc1ccccc1)C[C@@H](O)[C@H](Cc1ccccc1)NC(=O)OC(C)(C)C)C(=O)N[C@@H](Cc1ccccc1)C(N)=O	phenotypic distance	0.913

stdin: Enter reported phenotypic distance observed with E13 for `CC(C)C[C@H](NC(=O)[C@H](Cc1ccccc1)NC(=O)c1cnccn1)B(O)O`
stdout: 16.9

stdin: Another compound: `O=c1c2ccccc2[se]n1-c1ccccc1`
stdout: 0.891

stdin: Another compound: `COC(=O)Nc1nc2cc(C(=O)c3cccs3)ccc2[nH]1`
stdout: 6.13

// provenance: the supplement of paper PMC13207355
